# assayComment: Lethal doses / percentage mortality
# Assay type: in vivo
# testContext: mouse, in vivo, po; Table IX; read-out: DE 50 (second column; DL 50) (converted)
outcomeMeasure: LD50 (mg/kg)
Report as a plain number; the unit mg/kg is understood.

Worked cases, answers included:
>>> recordednumber("CC(=O)Oc1ccccc1C(=O)O [acetylsalicylic acid, reference compound]")
700
>>> recordednumber("Cc1cc(Nc2ccc(OCCN3CCCCC3)cc2)nc(-c2cccc(F)c2)n1")
975

[ask] Return reported LD50; argument: O=C(OCC(O)CO)c1ccccc1Nc1ccnc2cc(Cl)ccc12 (stereo not drawn)
[reply] 1900

[ask] For the molecule shown here, Cc1cc(Nc2ccc(OCCN3CCCC3)cc2)nc(-c2ccccc2)n1 , give the reported LD50.
[reply] 1500

[ask] Need LD50, item Cc1cc(Nc2ccc(OCCN(C)C)cc2)nc(-c2cccc(Cl)c2)n1
[reply] 2500

[ask] Can you look up the measured LD50 of Cc1c(N(C)C)c(=O)n(-c2ccccc2)n1C [amidopyrine, reference compound] for me?
[reply] 1050

[ask] What does the record list as LD50 for Cc1cc(Nc2ccc(OCCN3CCOCC3)cc2)nc(-c2ccccc2)n1 ?
[reply] 2800

---

# assayComment: Lethal doses / percentage mortality
# Assay type: in vivo
# testContext: in vivo; mouse, 520 mg/kg/PO
outcomeMeasure: mortality

[ask] // query mortality value for entry Cc1cc(Nc2ccc(OCCN3CCCCC3)cc2)nc(-c2ccccc2)n1
[reply] ~50%

---

# assayComment: Lethal doses / percentage mortality
# Assay type: in vivo
# testContext: in vivo; mouse, 625 mg/kg/PO
outcomeMeasure: mortality

[ask] Query (molecule): Cc1cc(Nc2ccc(OCCN3CCCCCC3)cc2)nc(-c2ccccc2)n1 [730 379] ; field requested: mortality
[reply] ~50%

---

# assayComment: Lethal doses / percentage mortality
# Type: in vivo
# testContext: in vivo; mouse, 1 600 mg/kg/PO
outcomeMeasure: mortality

[ask] Sample Cc1cc(Nc2ccccc2C(N)=O)nc(-c2ccc3c(c2)OCO3)n1 — what was its mortality?
[reply] ~50%
